Molecular target: Kinesin-like protein KIF11 (Homo sapiens)
Sequence (P52732 whole entry): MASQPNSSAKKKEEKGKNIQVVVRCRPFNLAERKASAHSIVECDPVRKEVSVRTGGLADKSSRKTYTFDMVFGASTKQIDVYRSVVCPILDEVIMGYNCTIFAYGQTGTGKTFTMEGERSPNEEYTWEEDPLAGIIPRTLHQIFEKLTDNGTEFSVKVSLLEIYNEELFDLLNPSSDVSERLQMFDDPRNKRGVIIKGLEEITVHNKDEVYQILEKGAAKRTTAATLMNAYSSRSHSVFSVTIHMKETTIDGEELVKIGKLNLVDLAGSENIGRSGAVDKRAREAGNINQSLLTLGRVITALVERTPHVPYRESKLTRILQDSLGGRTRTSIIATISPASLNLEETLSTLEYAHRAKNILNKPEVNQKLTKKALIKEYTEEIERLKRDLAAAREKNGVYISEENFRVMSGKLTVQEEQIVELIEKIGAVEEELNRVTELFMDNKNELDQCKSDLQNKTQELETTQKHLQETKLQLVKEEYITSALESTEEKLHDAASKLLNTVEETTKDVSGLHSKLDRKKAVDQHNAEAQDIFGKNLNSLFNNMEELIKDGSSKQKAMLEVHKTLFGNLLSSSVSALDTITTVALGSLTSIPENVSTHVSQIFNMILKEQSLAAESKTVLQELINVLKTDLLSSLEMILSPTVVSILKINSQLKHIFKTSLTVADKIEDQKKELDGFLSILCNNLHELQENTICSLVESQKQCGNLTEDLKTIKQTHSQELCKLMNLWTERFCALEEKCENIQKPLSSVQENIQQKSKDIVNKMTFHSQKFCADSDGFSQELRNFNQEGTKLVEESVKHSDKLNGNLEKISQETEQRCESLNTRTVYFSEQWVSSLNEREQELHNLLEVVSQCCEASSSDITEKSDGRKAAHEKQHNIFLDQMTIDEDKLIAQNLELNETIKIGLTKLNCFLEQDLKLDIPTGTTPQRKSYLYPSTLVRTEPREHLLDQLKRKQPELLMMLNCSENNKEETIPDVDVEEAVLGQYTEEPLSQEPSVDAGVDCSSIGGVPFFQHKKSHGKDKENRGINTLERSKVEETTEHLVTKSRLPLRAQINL
Assay: Inhibition of MT-stimulated EG5 ATPase activity (unknown origin) by pyruvate kinase/lactate dehydrogenase enzyme coupled photometric assay
Conditions: read-out: IC50
pIC50: −log10 of the molar value.
ENDPOINT_NAME: pIC50

CC(=O)N1N=C(NC2=NC(=O)/C(=C/C=C/c3ccc(N(C)C)cc3)S2)SC1(C)c1ccccc1 (centres undefined) = 3.89

P: CC(=O)N1N=C(NC2=NC(=O)/C(=C/c3ccc(OCc4ccccc4)cc3)S2)SC1(C)c1ccccc1 (centres undefined)
Q: CC(=O)N1N=C(NC2=NC(=O)/C(=C/c3ccccn3)S2)SC1(C)c1ccccc1 (centres undefined)
R: CC(=O)N1N=C(NC2=NC(=O)/C(=C/c3ccc(Br)cc3)S2)SC1(C)c1ccccc1 (centres undefined)
S: CC(=O)NC1=NN(C(C)=O)C(C)(c2ccccc2)S1 (centres undefined)
Task: Hey, can you sort those molecules up there by pIC50, smallest first? The labels, placed in the requested order, form the answer.
Result: Q, R, P, S
(Q: 3.92, R: 4.41, P: 4.76, S: 6.10)
